Data provenance is the supplement of paper PMC5908809.

- Tested on: NKL (IL-2 2.5 ng/mL);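 note: normalised to DMSO-only wells as negative and benzethonium chloride as positive control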
- procedure.summary: percent inhibition of viability; higher = more inhibition
- condition.label: 72 h; 10 nM
measurement.kind: percent inhibition of viability (%)
Hi! Could you send only the number? It should be in %, unit omitted.

Some entries whose results are on file:
| compound | percent inhibition of viability, % |
| --- | --- |
| CNC(=O)CN1CCC(Oc2cc3c(Nc4cccc(Cl)c4F)ncnc3cc2OC)CC1 [Sapitinib] (max concentration tested 1000 nM) | -5.01 |
| Nc1nccc(-c2c(-c3ccc(F)cc3)ncn2C2CCCCC2)n1 (max concentration tested 10000 nM) | 0.96 |
| Cn1cnc2c(F)c(Nc3ccc(Br)cc3F)c(C(=O)NOCCO)cc21 [Binimetinib] (max concentration tested 1000 nM) | 19.3 |
| C#Cc1cccc(Nc2ncnc3cc(OC)c(OCCCCCCC(=O)NO)cc23)c1 [CUDC-101] (max concentration tested 10000 nM) | -12.1 |
| O=C(Nc1ccc(-c2ccnc(Nc3ccc(N4CCOCC4)cc3)n2)cc1)C1CCCN1 (configuration not stated) [XL019] (max concentration tested 10000 nM) | 4.85 |

Please give the measured percent inhibition of viability for this compound: CCc1cc2c(cc1N1CCC(N3CCOCC3)CC1)C(C)(C)c1[nH]c3cc(C#N)ccc3c1C2=O [Alectinib] (max concentration tested 1000 nM) -11.6
